- assay overview: Human Fu (plasma)
- Type: in vitro ADME
measured attribute: fraction unbound

item smiles	readout number
Cc1nc(C)c2c(n1)sc1c(NCc3ccc(C(C)(C)O)cc3)ncnc12	0.014

---

Readings of Emax at 30 µM for the listed compounds
- system tested: Human M4 (Homo sapiens)
- Construct: expressed in transfected cells
- Sequence (P08173 whole entry): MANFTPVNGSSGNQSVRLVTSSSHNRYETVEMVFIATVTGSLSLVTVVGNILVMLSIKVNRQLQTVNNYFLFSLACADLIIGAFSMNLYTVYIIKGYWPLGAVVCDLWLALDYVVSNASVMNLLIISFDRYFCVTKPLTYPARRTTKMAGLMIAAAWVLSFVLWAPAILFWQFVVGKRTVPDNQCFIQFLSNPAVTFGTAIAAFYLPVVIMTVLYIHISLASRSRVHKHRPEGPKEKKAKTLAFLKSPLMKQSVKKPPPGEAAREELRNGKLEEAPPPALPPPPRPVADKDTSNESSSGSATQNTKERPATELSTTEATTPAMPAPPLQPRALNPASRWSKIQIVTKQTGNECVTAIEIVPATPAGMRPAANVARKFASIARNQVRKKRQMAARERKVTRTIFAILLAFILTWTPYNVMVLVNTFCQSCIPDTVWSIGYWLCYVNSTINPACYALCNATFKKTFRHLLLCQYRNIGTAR
- assay overview: mAChR M4 cell-based functional assay (calcium flux, potentiation of EC20 acetylcholine response)
- run conditions: % ACh maximum at 30 μM; human M4

compound	system tested	Emax at 30 µM, %
Cc1nc(C)c2c(n1)sc1c(NCc3ccc(C(C)(C)O)cc3)ncnc12 [Compound 1]	Human M4 (Homo sapiens)	70.4
Cc1nc(C)c2c(n1)sc1c(N3CC[C@H](F)C3)ncnc12 [Compound 19]	Human M4 (Homo sapiens)	62.4
Cc1nc(C2CC2)nc2sc3c(N4CCOCC4)nccc3c12 [Compound 30]	Human M4 (Homo sapiens)	74.2
Cc1nc(C)c2c(n1)sc1c(N3CCCC3)ncnc12 [Compound 2]	Human M4 (Homo sapiens)	51.7
CCc1nc(C)c2c(n1)sc1c(NCc3ccc(OC)c(F)c3)nccc12 [Compound 33]	Human M4 (Homo sapiens)	87.4
Cc1nc(C)c2c(n1)sc1c(N3CCOCC3)ncnc12 [Compound 9]	Human M4 (Homo sapiens)	39.1
CCc1nc(C)c2c(n1)sc1c(N3CCC(F)(F)C3)nccc12 [Compound 35]	Human M4 (Homo sapiens)	96.9
Cc1nc(C)c2c(n1)sc1c(N3CC[C@@H](F)C3)ncnc12 [Compound 20]	Human M4 (Homo sapiens)	71.5
COc1ccc(CNc2nccc3c2sc2nc(C)nc(C)c23)cc1F [Compound 13]	Human M4 (Homo sapiens)	84.4
Cc1nc(C)c2c(n1)sc1c(N3CCC(F)(F)CC3)ncnc12 [Compound 21]	Human M4 (Homo sapiens)	52.6
Cc1nc(C)c2c(n1)sc1c(NCc3ccc(F)c(F)c3)ncc(Cl)c12 [Compound 43]	Human M4 (Homo sapiens)	50.3
Cc1nc(C)c2c(n1)sc1c(NCc3ccc(C4(O)CCC4)cc3)ncnc12 [Compound 6]	Human M4 (Homo sapiens)	81.3
Cc1nc(C)c2c(n1)sc1c(NCc3ccc(C(C)(C)O)c(F)c3)nccc12 [Compound 31]	Human M4 (Homo sapiens)	85.8
Cc1nc(C)c2c(n1)sc1c(N3CC4CC4C3)ncnc12 (stereo not shown) [Compound 8]	Human M4 (Homo sapiens)	75.5
Cc1nc(C2CC2)nc2sc3c(NCc4ccc(F)c(F)c4)nccc3c12 [Compound 29]	Human M4 (Homo sapiens)	62.4
CCc1nc(C)c2c(n1)sc1c(NCc3ccc(C(C)(C)O)cc3)nccc12 [Compound 34]	Human M4 (Homo sapiens)	88.1
Cc1nc(C2CC2)nc2sc3c(NCc4ccc(C(C)(C)O)c(F)c4)nccc3c12 [Compound 27]	Human M4 (Homo sapiens)	86.4
[2H]C([2H])(Nc1ncnc2c1sc1nc(C)nc(C)c12)c1ccc(C(C)(C)O)cc1 [Compound 5]	Human M4 (Homo sapiens)	79.3
Cc1nc(C)c2c(n1)sc1c(N3CCC(F)(F)C3)ncnc12 [Compound 18]	Human M4 (Homo sapiens)	76.9
